Assay: Displacement of [125I]-Ang-2 from AT2 receptor in porcine myometrial membranes after 1.5 hrs
Format: cell membranes, Sus scrofa
Item-by-item account of pIC50
Note on units: pIC50 is unitless, being -log10 of a concentration expressed in mol/L.

{"smiles text": "CCCCC(=O)NS(=O)(=O)c1ccc(CC(C)C)cc1-c1ccc(Cn2cncn2)cc1", "measured result": 7.51}

Continue with the compound presented below.
Given item CCC(=O)NS(=O)(=O)c1ccc(C)cc1-c1ccc(Cn2cncn2)cc1 , the value recorded as its pIC50 is 6.65

* * *

Molecular target: Type-1 angiotensin II receptor (Homo sapiens)
Sequence (P30556 whole entry): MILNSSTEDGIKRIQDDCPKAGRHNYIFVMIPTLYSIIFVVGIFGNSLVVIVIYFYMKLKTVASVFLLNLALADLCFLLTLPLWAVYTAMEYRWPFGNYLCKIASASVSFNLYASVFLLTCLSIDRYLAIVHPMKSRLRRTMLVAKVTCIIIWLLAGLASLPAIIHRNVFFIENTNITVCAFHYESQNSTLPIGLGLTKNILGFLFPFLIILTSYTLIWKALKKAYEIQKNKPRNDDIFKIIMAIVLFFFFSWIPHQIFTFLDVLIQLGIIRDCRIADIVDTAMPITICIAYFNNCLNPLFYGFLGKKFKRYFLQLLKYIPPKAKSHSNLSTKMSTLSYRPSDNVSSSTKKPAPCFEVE
attribute measured: IC50 (nM)
Could you give me the number in nM? Just the number is fine.

Field IC50 (Type-1 angiotensin II receptor (Homo sapiens)), entry CCCCc1nn(C)c(=O)n1Cc1ccc(-n2cccc2-c2nnn[nH]2)cc1 : 2.5
